Tested on: HCV replicon in Huh7 cells
ASSAY: HCV replicon cell-based assay
Set-up: species or system HCV strain 1B
PROTOCOL CONDITIONS: Hepatitis C virus, Huh-7, 96 h; HCV replicon, Huh7 cells, 4 days; activity ranges; read-out: EC50
pEC50: −log10 of the molar value.
OBSERVABLE: pEC50

A selection of reference data follows.
COMPOUND	pEC50
C=C[C@@H]1C[C@]1(NC(=O)C1C[C@@H](Oc2cc(-c3ccccc3)nc3cc(OC)ccc23)CN1C(=O)[C@@H](NC(=O)OCCCC)C(C)(C)C)C(=O)NS(=O)(=O)C1CC1 (stereo partly drawn) [Compound 127]	> 7.30
C=CC1CC1(NC(=O)[C@@H]1C[C@@H](Oc2cc(-c3ccccc3)nc3cc(OC)ccc23)CN1C(=O)[C@@H](NC(=O)OC(C)(C)C)C(C)(C)C)C(=O)NS(C)(=O)=O (stereo partly drawn) [Compound 86]	> 6.30

# context switch: different compound, same pEC50
[Q] Recall and state the measured pEC50 for C=C[C@@H]1C[C@]1(NC(=O)C1C[C@@H](Oc2cc(-c3ccccc3)nc3cc(OC)ccc23)CN1C(=O)[C@@H](NC(=O)CC1CC1)C(C)(C)C)C(=O)NS(=O)(=O)C1CC1 (stereo partly drawn) [Compound 104] .
[A] > 7.30

----------
SYSTEM UNDER TEST: HCV NS3/4A protease complex (Hepatitis C virus genotype 1a, UniProt P27958, C1454S/C1711G)
Sequence (P27958 1027-1711, stated change not applied): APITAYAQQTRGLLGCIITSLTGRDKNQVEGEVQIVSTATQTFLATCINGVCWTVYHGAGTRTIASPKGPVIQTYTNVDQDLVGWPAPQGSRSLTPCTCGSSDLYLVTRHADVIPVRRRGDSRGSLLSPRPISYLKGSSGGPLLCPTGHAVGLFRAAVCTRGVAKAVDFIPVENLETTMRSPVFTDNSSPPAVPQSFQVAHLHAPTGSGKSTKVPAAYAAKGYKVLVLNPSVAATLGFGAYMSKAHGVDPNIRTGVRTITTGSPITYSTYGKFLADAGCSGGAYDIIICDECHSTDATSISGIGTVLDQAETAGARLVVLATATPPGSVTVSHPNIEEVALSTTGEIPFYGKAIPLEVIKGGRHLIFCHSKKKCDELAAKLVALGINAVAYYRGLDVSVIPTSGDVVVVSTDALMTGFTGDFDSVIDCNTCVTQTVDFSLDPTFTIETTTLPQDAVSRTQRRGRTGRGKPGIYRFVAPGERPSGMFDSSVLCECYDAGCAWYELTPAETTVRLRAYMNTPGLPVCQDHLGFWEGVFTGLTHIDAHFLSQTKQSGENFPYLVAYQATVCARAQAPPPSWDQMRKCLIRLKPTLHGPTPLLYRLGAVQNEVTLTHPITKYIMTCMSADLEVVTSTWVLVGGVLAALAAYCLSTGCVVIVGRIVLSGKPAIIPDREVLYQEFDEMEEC
Sequence (P27958 1027-1711, stated change not applied): as above
ASSAY: Recombinant HCV NS3/4A protease complex FRET peptide assay (strain not stated)
Assay type: biochemical
PROTOCOL CONDITIONS: IC50, strain not stated
OBSERVABLE: IC50 (nM)
Provide the reading as a plain figure in nM.

[Q] Look up and report IC50, with HCV NS3/4A protease complex (Hepatitis C virus genotype 1a, UniProt P27958, C1454S/C1711G) as system, for C=CC1C[C@]1(NC(=O)[C@@H]1C[C@@H](Oc2cc(-c3ccccc3)nc3cc(OC)ccc23)CN1C(=O)C(NC(=O)OC(C)(C)C)C(C)(C)C)C(=O)NS(=O)(=O)c1ccc(NC(C)=O)cc1 (stereo partly shown)
[A] 21

----------
SYSTEM UNDER TEST: HCV NS3/4A protease complex (Hepatitis C virus genotype 1a, UniProt P27958, C1454S/C1711G)
ASSAY: Recombinant HCV NS3/4A protease complex FRET peptide assay (strain not stated)
Format: biochemical
PROTOCOL CONDITIONS: IC50, NS3/4A protease enzyme assay, strain not stated; activity ranges
pIC50: −log10 of the molar value.
OBSERVABLE: pIC50

COMPOUND	SYSTEM UNDER TEST	OBSERVABLE	RESULT VALUE
C=CC1C[C@]1(NC(=O)[C@@H]1C[C@@H](Oc2cc(-c3ccccc3)nc3cc(OC)ccc23)CN1C(=O)[C@@H](NC(=O)OC(C)(C)C)C(C)C)C(=O)NS(=O)(=O)C1CC1 (stereo partly shown)	HCV NS3/4A protease complex (Hepatitis C virus genotype 1a, UniProt P27958, C1454S/C1711G)	pIC50	> 7.30
C=CC1C[C@]1(NC(=O)[C@@H]1C[C@@H](Oc2cc(-c3ccccc3)nc3cc(OC)ccc23)CN1C(=O)C(NC(=O)OC(C)(C)C)C(C)(C)C)C(=O)NS(=O)(=O)c1ccccc1C(=O)OC (stereo partly shown)	HCV NS3/4A protease complex (Hepatitis C virus genotype 1a, UniProt P27958, C1454S/C1711G)	pIC50	> 6.30
C=C[C@@H]1C[C@]1(NC(=O)C1C[C@@H](Oc2cc(-c3ccccc3)nc3cc(OC)ccc23)CN1C(=O)[C@@H](NC(=O)C(C)(C)C)C(C)(C)C)C(=O)NS(=O)(=O)C1CC1 (stereo partly shown)	HCV NS3/4A protease complex (Hepatitis C virus genotype 1a, UniProt P27958, C1454S/C1711G)	pIC50	> 7.30
C=C[C@@H]1C[C@]1(NC(=O)C1C[C@@H](Oc2cc(-c3ccccc3)nc3cc(OC)ccc23)CN1C(=O)[C@@H](Nc1ccncc1[N+](=O)[O-])C(C)(C)C)C(=O)NS(=O)(=O)C1CC1 (stereo partly shown)	HCV NS3/4A protease complex (Hepatitis C virus genotype 1a, UniProt P27958, C1454S/C1711G)	pIC50	> 5.30
C=CC1CC1(NC(=O)[C@@H]1C[C@@H](Oc2cc(-c3ccccc3)nc3cc(OC)ccc23)CN1C(=O)[C@@H](NC(=O)OC(C)(C)C)C(C)(C)C)C(=O)NS(C)(=O)=O (stereo partly shown) [Compound 86]	HCV NS3/4A protease complex (Hepatitis C virus genotype 1a, UniProt P27958, C1454S/C1711G)	pIC50	> 7.30

[Q] Recall and state the measured pIC50 for COc1ccc2c(OC3C[C@@H](C(=O)NC4(C(=O)NS(=O)(=O)C5CC5)CC45CC5)N(C(=O)[C@@H](NC(=O)OC(C)(C)C)C(C)(C)C)C3)cc(-c3ccccc3)nc2c1 (stereo partly shown) .
[A] > 7.30

[Q] Recall and state the measured pIC50 for C=CC1C[C@]1(NC(=O)[C@@H]1C[C@@H](Oc2cc(-c3ccccc3)nc3cc(OC)ccc23)CN1C(=O)[C@@H](NC(=O)OC(C)(C)C)C(C)(C)C)C(=O)NS(=O)(=O)c1ccc([N+](=O)[O-])cc1 (stereo partly shown) .
[A] > 6.30

[Q] Recall and state the measured pIC50 for C#CCOC(=O)N[C@H](C(=O)N1C[C@H](Oc2cc(-c3ccccc3)nc3cc(OC)ccc23)CC1C(=O)N[C@]1(C(=O)NS(=O)(=O)C2CC2)C[C@H]1C=C)C(C)(C)C (stereo partly shown) .
[A] > 7.30
